Would you mind telling me the reported log10 GI50 of each entry?
System: MCF7
experiment-notes: Growth inhibition of human MCF7 cells measured after 48 hrs by sulforhodamine B assay
Type: functional
condition: MCF7, 48 h
Values are log10 of GI50 in µg/mL.

COc1cc(C2C3=C(COC3=O)N(CCc3ccc(F)cc3)c3cc4c(cc32)OCO4)cc(OC)c1OC (stereo not drawn)    -0.38

Hey, can you go through the list below and give me log10 GI50 for every item?
1. COc1cc(C2C3=C(COC3=O)N(CCc3ccc(F)cc3)c3cc4c(cc32)OCO4)cc(OC)c1O (stereo not drawn)
2. COc1cc(C2C3=C(COC3=O)N(CCN(C)C)c3cc4c(cc32)OCO4)cc(OC)c1OC (stereo not drawn)
3. COc1cc(C2C3=C(COC3=O)N(C)c3cc4c(cc32)OCO4)cc(OC)c1OC (stereo not drawn)

Output:
-0.47
-0.54
-1.47

Hey, can you go through the list below and give me log10 GI50 for every item?
1. COc1cc(C2C3=C(COC3=O)N(CCc3ccccn3)c3cc4c(cc32)OCO4)cc(OC)c1OC (stereo not drawn)
2. COc1cc(C2C3=C(COC3=O)N(Cc3ccc(F)cc3)c3cc4c(cc32)OCO4)cc(OC)c1OC (stereo not drawn)
3. COc1cc(C2C3=C(COC3=O)N(Cc3ccco3)c3cc4c(cc32)OCO4)cc(OC)c1O (stereo not drawn)
4. O=C1OCC2=C1C(c1cccc3c1OCO3)c1cc3c(cc1N2)OCO3 (stereo not drawn)

Output:
[-0.49, -1.43, -1.27, -2.41]

Hey, can you go through the list below and give me log10 GI50 for every item?
1. COc1cc(C2C3=C(COC3=O)N(CCc3ccc([N+](=O)[O-])cc3)c3cc4c(cc32)OCO4)cc(OC)c1OC (stereo not drawn)
2. COc1cc([C@@H]2c3cc4c(c(O[C@@H]5O[C@H](CO)[C@@H](O)[C@H](O)[C@H]5O)c3C[C@H]3COC(=O)[C@@H]32)OCO4)cc(OC)c1OC
3. COc1cc(C2C3=C(COC3=O)N(C3CCC3)c3cc4c(cc32)OCO4)cc(OC)c1OC (stereo not drawn)
4. COc1cc(C2C3=C(COC3=O)Nc3cc4c(cc32)OCO4)cc(OC)c1O (stereo not drawn)
5. COc1cc(C2C3=C(COC3=O)Nc3cc(OC)c(OC)c(OC)c32)cc(OC)c1OC (stereo not drawn)
6. COc1cc(C2C3=C(COC3=O)N(CCc3ccc(Cl)cc3)c3cc4c(cc32)OCO4)cc(OC)c1OC (stereo not drawn)
7. COc1cc(C2C3=C(COC3=O)Nc3cc(OC)c(OC)c(OC)c32)cc(Br)c1OC (stereo not drawn)
8. COc1ccc(C2C3=C(COC3=O)Nc3cc(OC)c(OC)c(OC)c32)cc1O (stereo not drawn)

Output:
1: -1.10; 2: -0.07; 3: -1.59; 4: -1.60; 5: 0.23; 6: -0.47; 7: -0.92; 8: 0.85

Input: Which log10 GI50 is reported for this molecule? COc1cc(C2C3=C(COC3=O)N(CCCn3ccnc3)c3cc4c(cc32)OCO4)cc(OC)c1OC (stereo not drawn)
Output: -0.19

Cited source for all entries: ChEMBL document CHEMBL3808349
